Target Or System: G protein-coupled receptor 119 (GPR-119) (Mesocricetus auratus)
Construct: hamster-derived β-cells containing G protein-coupled receptor 119 (GPR-119), HIT-T15 cells; host or cells: HIT-T15 (hamster pancreatic β-cells)
Assay Comment: cAMP activity in HIT-T15 cells (cAMP dynamic kit, FRET)
Type: cell-based, hamster
Settings: Table 2, read-out: EC50 value
Overview of reported EC50 across a group of compounds:

Compound: CCN1CCN(C(=O)C2CC=C(c3ccc(OCC4CCN(c5nc(C(C)C)no5)CC4)c(F)c3)CC2)CC1 (stereo not drawn)
EC50: ≤ 0.05 µM
--
Compound: CC(C)(C)OC(=O)N1CCC(COc2ccc(C3=CCC(C(=O)N4CCOCC4)CC3)cc2F)CC1 (single isomer, unassigned; (+))
EC50: ≤ 0.05 µM
--
Compound: CC(C)c1noc(N2CCC(COc3ccc(C4=CCC(C(=O)N5CCC(CO)CC5)CC4)cc3F)CC2)n1 (stereo not drawn)
EC50: ≤ 0.05 µM
--
Compound: CCCNC(=O)N1CCN(C(=O)C2CC=C(c3ccc(OCC4CCN(c5ncc(CC)cn5)CC4)cc3)CC2)CC1 (stereo not drawn)
EC50: ≤ 0.05 µM
--
Compound: CC(C)OC(=O)N1CCC(COc2ccc(C3=CCC(C(=O)N4CCCC4)CC3)cc2F)CC1 (stereo not drawn)
EC50: ≤ 0.05 µM

// next entry
Which EC50 reading was recorded for the compound CC(OC(=O)N1CCC(COc2ccc(C3=CCC(C(=O)N4CCCC4)CC3)cc2F)CC1)C(F)(F)F (stereo not drawn) ?
≤ 0.05 µM

* * *

Target Or System: CYP2C19 (Homo sapiens, UniProt P33261)
Construct: purchased BD GENTEST 459400
Sequence (P33261 whole entry): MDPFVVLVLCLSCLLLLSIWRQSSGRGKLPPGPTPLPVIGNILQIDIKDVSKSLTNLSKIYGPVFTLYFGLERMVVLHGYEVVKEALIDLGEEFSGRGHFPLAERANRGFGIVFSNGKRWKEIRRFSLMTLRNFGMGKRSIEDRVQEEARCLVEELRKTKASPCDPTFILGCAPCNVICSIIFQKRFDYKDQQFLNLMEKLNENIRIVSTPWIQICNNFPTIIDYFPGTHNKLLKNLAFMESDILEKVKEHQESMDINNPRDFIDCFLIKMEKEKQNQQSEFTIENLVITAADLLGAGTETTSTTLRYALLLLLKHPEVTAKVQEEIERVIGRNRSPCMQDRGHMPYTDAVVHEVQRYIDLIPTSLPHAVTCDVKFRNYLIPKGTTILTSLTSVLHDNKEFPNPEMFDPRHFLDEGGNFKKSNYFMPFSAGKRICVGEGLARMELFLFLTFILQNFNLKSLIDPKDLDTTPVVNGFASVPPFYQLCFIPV
Assay Comment: CYP inhibition assay (BD GENTEST kit)
Format: in vitro ADME
Settings: human, CYP2C19 enzyme/substrate mixture of BD GENTEST kit, pH 7.4, 10 μM; read-out: CYP inhibition (% at 10 μM) 2C19
Overview of reported inhibition at 30 min, 10 µM across a group of molecules:
State just the number; it will be interpreted in %.

Molecule: CCc1cnc(N2CCC(COc3ccc(C4=CCC(C(=O)N5CCC[C@@H]5CO)CC4)cc3)CC2)nc1 (some centres unmarked) [Example 118]
Measured Metric: inhibition at 30 min, 10 µM
Unit Info: %
Endpoint Value: 48.4

// next entry
Which inhibition at 30 min, 10 µM reading was recorded for the molecule CCc1cnc(N2CCC(COc3ccc(C4=CCC(C(=O)N5CCC[C@@H]5CO)CC4)cc3)CC2)nc1 (single isomer, unassigned; (+)) [Example 290] ?
44.9

* * *

Target Or System: G protein-coupled receptor 119 (GPR-119) (Mesocricetus auratus, UniProt A0A1U8CD06)
Construct: hamster-derived β-cells containing G protein-coupled receptor 119 (GPR-119), HIT-T15 cells; host or cells: HIT-T15 (hamster pancreatic β-cells)
Assay Comment: cAMP activity in HIT-T15 cells (cAMP dynamic kit, FRET)
Format: cell-based, hamster
Settings: 1 hour at 37° C., six concentrations 0.0032 to 10 μM, read-out: EC50
Overview of reported EC50 across a group of compounds:
State just the number; it will be interpreted in nM.

Compound: CCc1cnc(N2CCC(COc3ccc(C4=CCC(C(=O)N5CCCC5)CC4)cc3F)CC2)nc1 (stereo not shown) [Example 293]
Target Or System: G protein-coupled receptor 119 (GPR-119) (Mesocricetus auratus, UniProt A0A1U8CD06)
Unit Info: nM
EC50: 18
--
Compound: CCc1cnc(N2CCC(COc3ccc(C4=CCC(C(=O)NC5CCC5)CC4)cc3F)CC2)nc1 (stereo not shown)
Target Or System: G protein-coupled receptor 119 (GPR-119) (Mesocricetus auratus, UniProt A0A1U8CD06)
Unit Info: nM
EC50: 29

Which EC50 reading was recorded for the compound CCc1cnc(N2CCC(COc3ccc(C4=CCC(C(=O)N5CCC(CCO)CC5)CC4)cc3F)CC2)nc1 (single isomer, unassigned; (-)) [Example 430] ?
9

Next: CC(C)(C)OC(=O)N1CCC(COc2ccc(C3=CCC(C(=O)N4CCOCC4)CC3)nc2)CC1 (stereo not shown)
80

Next: CCc1cnc(N2CCC(COc3ccc(C4=CCC(C(=O)N5CCOCC5)CC4)cc3C(F)(F)F)CC2)nc1 (stereo not shown)
140

Next: CC(C)(C)OC(=O)N1CCC(COc2ccc(C3=CCC(C(=O)N4CCC(=NO)CC4)CC3)nc2)CC1 (stereo not shown)
45

Next: CC(C)c1noc(N2CCC(COc3ccc(C4=CCC(C(=O)N5CCC(C(N)=O)CC5)CC4)cc3F)CC2)n1 (stereo not shown)
48

* * *

Target Or System: CYP2D6 (Homo sapiens, UniProt P10635)
Construct: purchased Invitrogen P2862
Sequence (P10635 whole entry): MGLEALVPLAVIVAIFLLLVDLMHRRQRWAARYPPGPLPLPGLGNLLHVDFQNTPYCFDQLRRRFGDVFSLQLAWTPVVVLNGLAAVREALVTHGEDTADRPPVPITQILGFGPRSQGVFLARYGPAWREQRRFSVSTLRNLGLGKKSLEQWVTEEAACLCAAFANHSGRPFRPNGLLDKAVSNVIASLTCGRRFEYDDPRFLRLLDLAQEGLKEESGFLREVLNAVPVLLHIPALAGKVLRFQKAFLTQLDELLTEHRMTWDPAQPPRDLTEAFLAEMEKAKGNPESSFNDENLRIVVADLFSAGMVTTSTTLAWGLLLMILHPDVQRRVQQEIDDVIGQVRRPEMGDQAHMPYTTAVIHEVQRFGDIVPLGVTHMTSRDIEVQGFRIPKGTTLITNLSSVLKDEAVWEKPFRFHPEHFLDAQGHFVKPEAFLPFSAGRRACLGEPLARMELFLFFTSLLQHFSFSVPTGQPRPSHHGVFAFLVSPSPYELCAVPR
Assay Comment: CYP inhibition assay (Invitrogen P2862 kit)
Type: in vitro ADME
Settings: human, CYP2D6 P450 BACULOSOMES (Invitrogen P2862 kit), probe Vivid CYP450 substrate, read-out: CYP inhibition (% at 10 μM) 2D6
Overview of reported inhibition at 1 h, 10 µM across a group of compounds:
State just the number; it will be interpreted in %.

Compound: CC(C)c1noc(C2CCN(c3ncnc(Nc4ccc(S(C)(=O)=O)cc4F)c3[N+](=O)[O-])CC2)n1 [Comparative Example 1, reference compound]
Measured Metric: inhibition at 1 h, 10 µM
Endpoint Value: 9.84

Which inhibition at 1 h, 10 µM reading was recorded for the compound CCc1cnc(N2CCC(COc3ccc(C4=CCC(C(=O)N5CCC[C@@H]5CO)CC4)cc3)CC2)nc1 (some centres unmarked) ?
9.42

* * *

Overview of reported pEC50 across a group of compounds:
Target Or System: G protein-coupled receptor 119 (GPR-119) (Mesocricetus auratus)
Construct: hamster-derived β-cells containing G protein-coupled receptor 119 (GPR-119), HIT-T15 cells; host or cells: HIT-T15 (hamster pancreatic β-cells)
Sequence (A0A1U8CD06 1-334): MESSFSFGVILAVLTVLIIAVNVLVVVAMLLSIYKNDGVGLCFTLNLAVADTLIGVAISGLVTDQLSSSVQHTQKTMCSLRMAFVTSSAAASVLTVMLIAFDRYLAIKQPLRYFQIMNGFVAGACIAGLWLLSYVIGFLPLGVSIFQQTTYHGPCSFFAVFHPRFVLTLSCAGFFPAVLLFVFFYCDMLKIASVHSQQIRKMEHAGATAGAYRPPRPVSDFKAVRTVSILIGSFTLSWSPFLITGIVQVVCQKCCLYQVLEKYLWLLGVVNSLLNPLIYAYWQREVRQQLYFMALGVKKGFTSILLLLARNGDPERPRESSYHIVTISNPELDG
Assay Comment: cAMP activity in HIT-T15 cells (cAMP dynamic kit, FRET)
Format: cell-based, hamster
Settings: 1 hour at 37° C., six concentrations 0.0032 to 10 μM, read-out: EC50
The scale used: pEC50 is minus the common logarithm of the concentration in molar units.

Record excerpt, results attached:
Compound: CCc1cnc(N2CCC(COc3ccc(C4=CCC(C(=O)N5CCC(C(N)=O)CC5)CC4)cc3F)CC2)nc1 (stereo not drawn) [Example 324]
Endpoint Value: 7.57

Compound: CC(C)(C)OC(=O)N1CCC(COc2ccc(C3=CCC(C(=O)N4CCCCC4)CC3)nc2)CC1 (stereo not drawn) [Example 311]
Endpoint Value: 7.10

Compound: CCc1cnc(N2CCC(COc3ccc(C4=CCC(C(=O)N5CCN(C6CC6)CC5)CC4)cc3)CC2)nc1 (stereo not drawn) [Example 395]
Endpoint Value: 7.85

Compound: CCc1cnc(N2CCC(COc3ccc(C4=CCC(C(=O)N5CC(O)C5)CC4)cc3F)CC2)nc1 (stereo not drawn) [Example 309]
Endpoint Value: 7.96

Compound: O=C(Oc1ccc([N+](=O)[O-])cc1)N1CCC(COc2ccc(C3=CCC(C(=O)N4CCCC4)CC3)cc2F)CC1 (stereo not drawn) [Example 404]
Endpoint Value: 7.26

// map CCc1cnc(N2CCC(COc3ccc(C4=CCC(C(=O)N5CCSCC5)CC4)cn3)CC2)nc1 (stereo not drawn) [Example 352] to recorded pEC50 (system: G protein-coupled receptor 119 (GPR-119) (Mesocricetus auratus))
7.20

Next: CC(C)c1noc(N2CCC(COc3ccc(C4=CCC(C(=O)N5CCC(N6CCCCC6)CC5)CC4)cc3F)CC2)n1 (stereo not drawn) [Example 362]
6.74

Next: CCc1cnc(N2CCC(COc3ccc(C4=CCC(C(=O)N5CCC[C@@H]5CO)CC4)c(F)c3)CC2)nc1 (stereo partly drawn) [Example 427]
7.49

Next: CCc1cnc(N2CCC(COc3ccc(C4=CCC(C(=O)N5CCC(F)(F)C5)CC4)c(F)c3)CC2)nc1 (stereo not drawn) [Example 454]
7.82

Next: CCC(F)(F)C(=O)N1CCC(COc2ccc(C3=CCC(C(=O)N4CCOCC4)CC3)cc2F)CC1 (stereo not drawn) [Example 439]
8.23

Next: CC(C)=CC(=O)N1CCC(COc2ccc(C3=CCC(C(=O)N4CCOCC4)CC3)cc2F)CC1 (stereo not drawn) [Example 451]
7.05

Next: CCc1cnc(N2CCC(COc3ccc(C4=CCC(C(=O)N5CCC(CO)CC5)CC4)cc3C#N)CC2)nc1 (stereo not drawn) [Example 391]
7.57

Next: CC(C)c1noc(N2CCC(COc3ccc(C4=CCC(C(=O)NC5CCC5)CC4)cc3F)CC2)n1 (stereo not drawn) [Example 364]
7.07

Next: CCc1cnc(N2CCC(COc3ccc(C4=CCC(C(=O)N5CC(=O)C5)CC4)cc3F)CC2)nc1 (stereo not drawn) [Example 295]
7.37

Next: CCc1cnc(N2CCC(COc3ccc(C4=CCC(C(=O)N5CCCC5)CC4)cc3C#N)CC2)nc1 (stereo not drawn) [Example 386]
7.19

Cited source: patent US10723699B2
